Conditions: 323.15 K; 30000 kPa; Liquid; Vibrating tube method
RECORDED_ENDPOINT: mass density (kg/m3)
# number only, unit kg/m3 dropped from output

Solved cases below.
CCCCCCCCCC 731.1
CCCCCC 663.9
CCCCCCCCCCCC 749.2

With those in mind, consider the next molecule.
q: Output measured mass density for this item: CCCCCCCCCCCCCCCC
a: 772.9

====

Conditions: 463.15 K; 50000 kPa; Liquid; Vibrating tube method
± gives the expanded uncertainty stated by the source.
Below, each entry is listed alongside its reported mass density.
Answer as a quantity: numeral, then unit.

Illustrative cases are given below, each with its answer.
COMPOUND	RECORDED_ENDPOINT	ASSAY_VALUE
CCCCCC [hexane]	mass density	589.3 ± 3.2 kg/m3
CCCCCCCCCCCCCCCC [hexadecane]	mass density	709.8 ± 3.1 kg/m3
CCCCCCCCCCCC [dodecane]	mass density	684.1 ± 3.1 kg/m3

Here is the next item to consider.
q: Supply reported mass density belonging to this compound: CCCCCCCCCC [decane]
a: 663.3 ± 3.1 kg/m3

====

mass density values, listed per item
Conditions: 298.15 K; 30000 kPa; Liquid; Vibrating tube method
Numbers after ± are expanded uncertainties.
Just the number plus its unit, please.

Use the examples below as a reference point.
COMPOUND	ASSAY_VALUE
CCCCCCCCCCCC [dodecane]	764.7 ± 0.8 kg/m3
CCCCCCCCCCCCCCCC [hexadecane]	788.1 ± 0.8 kg/m3
CCCCCC [hexane]	681.9 ± 0.9 kg/m3

q: Give the reported mass density for this compound. CCCCCCCCCC [decane]
a: 747.2 ± 0.8 kg/m3

====

Settings: 373.15 K; 5000 kPa; Liquid; Vibrating tube method
Catalogue of mass density values
Hi! Could you send only the number? It should be in kg/m3, unit omitted.

COMPOUND	mass density, kg/m3
CCCCCCCCCCCCCCCC [hexadecane]	723.2
CCCCCCCCCCCC [dodecane]	695.2
CCCCCC [hexane]	591

q: Report mass density for CCCCCCCCCC [decane]
a: 673.8

====

Conditions: 323.15 K; 60000 kPa; Liquid; Vibrating tube method
RECORDED_ENDPOINT: mass density (kg/m3)
Express your answer in kg/m3, writing the number without its unit.

Solved entries (count: 2):
MOLECULE	mass density (kg/m3)
CCCCCCCCCCCCCCCC [hexadecane]	788.7
CCCCCCCCCC [decane]	749.2

q: Report measured mass density; entry is CCCCCC [hexane]
a: 686.1

q: Return reported mass density. Input molecule: CCCCCCCCCCCC [dodecane]
a: 766.3

====

We begin with a simple list: items and their reported mass density.
Details: 323.15 K; 5000 kPa; Liquid; Vibrating tube method
// note: answer is a bare numeric in kg/m3

COMPOUND	mass density, kg/m3
CCCCCCCCCCCCCCCC [hexadecane]	756.8

q: Specify measured mass density for CCCCCC [hexane] .
a: 638.2

q: Return the recorded mass density value; entry: CCCCCCCCCCCC [dodecane]
a: 731.4

q: Consider the compound CCCCCCCCCC [decane] and give its recorded mass density.
a: 711.9

====

Conditions: 423.15 K; 40000 kPa; Liquid; Vibrating tube method
RECORDED_ENDPOINT: mass density (kg/m3)
Provide only the numeric value, understood in kg/m3.

Below, 2 compounds whose answers are already recorded.
COMPOUND	mass density (kg/m3)
CCCCCC [hexane]	603.2
CCCCCCCCCCCC [dodecane]	697

q: Quote mass density reported for CCCCCCCCCC [decane] please.
a: 677

q: Please give the documented mass density of CCCCCCCCCCCCCCCC [hexadecane]
a: 722.9

====

Details: 323.15 K; 20000 kPa; Liquid; Vibrating tube method
RECORDED_ENDPOINT: mass density (kg/m3)
Number only, in kg/m3; omit the unit.

CCCCCCCCCC 724
CCCCCC 654.7

q: Indicate its recorded mass density; the compound in question is CCCCCCCCCCCC
a: 742.6

q: Give the reported value of mass density for this record: CCCCCCCCCCCCCCCC
a: 766.9

====

Conditions: 463.15 K; 60000 kPa; Liquid; Vibrating tube method
Numbers after ± are expanded uncertainties.
RECORDED_ENDPOINT: mass density
Please don't drop the unit; write it after the number.

CCCCCCCCCC 672.1 ± 3.1 kg/m3

q: Fill in mass density for record CCCCCCCCCCCC
a: 692.6 ± 3.1 kg/m3

q: Write down mass density measured for item CCCCCCCCCCCCCCCC
a: 717.5 ± 3.1 kg/m3

q: Consider the compound CCCCCC . State its measured mass density.
a: 600.7 ± 3.2 kg/m3

====

Let's look at some compounds and their measured mass density.
Conditions: 348.15 K; 10000 kPa; Liquid; Vibrating tube method
Only the number, expressed in kg/m3, is required.

CCCCCCCCCCCCCCCC 743.8
CCCCCCCCCCCC 717.8
CCCCCC 622.1

Lab note: next compound to report on.
q: Item CCCCCCCCCC : provide mass density
a: 697.7

====

Listing: mass density of selected molecules
Details: 423.15 K; 30000 kPa; Liquid; Vibrating tube method
Dear colleague, please return just the value in kg/m3, with no unit written.

q: Note mass density for the molecule shown: CCCCCCCCCCCCCCCC [hexadecane]
a: 714.7

q: Answer with the recorded mass density of CCCCCCCCCCCC [dodecane] only.
a: 688

q: Return mass density (reported value) for this molecule: CCCCCCCCCC [decane]
a: 667.1

q: # return recorded mass density for input CCCCCC [hexane]
a: 589.7

====

Conditions: 348.15 K; 5000 kPa; Liquid; Vibrating tube method
RECORDED_ENDPOINT: mass density (kg/m3)
Kindly answer with a numeric value in kg/m3, unit omitted.

// solved cases for mass density follow
CCCCCCCCCCCC 713.4
CCCCCCCCCCCCCCCC 739.8
CCCCCCCCCC 692.8

// switching to the query compound
q: Using known records, supply mass density for CCCCCC
a: 614.9

====

Settings: 348.15 K; 20000 kPa; Liquid; Vibrating tube method
Below, each entry is listed with its recorded mass density.
Report only the number, with the unit kg/m3 understood.

As a guide, the following entries are already answered.
COMPOUND	VALUE_UNITS	mass density
CCCCCCCCCCCCCCCC [hexadecane]	kg/m3	751.1
CCCCCCCCCC [decane]	kg/m3	706.7
CCCCCC [hexane]	kg/m3	634.6

From here, focus on the item given below.
q: Quote mass density reported for CCCCCCCCCCCC [dodecane] please.
a: 726.1

====

Conditions: 348.15 K; 40000 kPa; Liquid; Vibrating tube method
± gives the expanded uncertainty stated by the source.
RECORDED_ENDPOINT: mass density
Provide a numeric answer, followed by its unit.

Some solved cases for reference:
COMPOUND	ASSAY_VALUE
CCCCCCCCCCCC [dodecane]	740.2 ± 0.9 kg/m3
CCCCCCCCCCCCCCCC [hexadecane]	763.9 ± 0.9 kg/m3
CCCCCC [hexane]	654.4 ± 1 kg/m3

Here is the next item to consider.
q: Fill in reported mass density for this entry: CCCCCCCCCC [decane]
a: 721.8 ± 0.9 kg/m3

====

Settings: 298.15 K; 20000 kPa; Liquid; Vibrating tube method
Let's look at some compounds and their measured mass density.
Provide the reading as a plain figure in kg/m3.

# annotated cases, reported mass density shown
COMPOUND	mass density, kg/m3
CCCCCCCCCCCCCCCC [hexadecane]	782.6
CCCCCC [hexane]	673.9
CCCCCCCCCCCC [dodecane]	758.7

Proceed to the following item.
q: // Input: CCCCCCCCCC [decane] . Output its mass density only.
a: 740.9

====

Form field: mass density (one value per entry).
Conditions: 423.15 K; 50000 kPa; Liquid; Vibrating tube method
Give the value in kg/m3 but do not write kg/m3 after it.

The cases that follow already have their mass density on record.
CCCCCCCCCCCC 705.3
CCCCCCCCCC 685.9

q: Dear colleague, please send me the reported mass density for CCCCCC when you can.
a: 614.6

q: Please report mass density for the following molecule: CCCCCCCCCCCCCCCC
a: 730.4

====

Conditions: 423.15 K; 5000 kPa; Liquid; Vibrating tube method
Quick reference: mass density of the listed items.
Entry rule: numbers only, all in kg/m3.

q: Using the record for CCCCCCCCCC , state its measured mass density.
a: 634.5

q: Read off the recorded mass density for CCCCCCCCCCCC
a: 658.7

q: For the compound CCCCCC , give its reported mass density.
a: 536.9

q: Retrieve mass density measured for CCCCCCCCCCCCCCCC and print it.
a: 689.2

====

# maps each entry to its mass density
Conditions: 323.15 K; 100 kPa; Liquid; Vibrating tube method
Field: numeric (kg/m3). Do not append units.

Some molecules with known mass density results, for comparison:
CCCCCC 631.7
CCCCCCCCCCCC 727.2
CCCCCCCCCCCCCCCC 753.1

Please examine the following record next.
q: Provide mass density value for the following molecule: CCCCCCCCCC
a: 707.4
